studyTarget: GST-tagged truncated human mutant G2019S LRRK2 (Homo sapiens (Human), UniProt Q5S007, G2019S)
Sequence (Q5S007 970-2527 G2019S): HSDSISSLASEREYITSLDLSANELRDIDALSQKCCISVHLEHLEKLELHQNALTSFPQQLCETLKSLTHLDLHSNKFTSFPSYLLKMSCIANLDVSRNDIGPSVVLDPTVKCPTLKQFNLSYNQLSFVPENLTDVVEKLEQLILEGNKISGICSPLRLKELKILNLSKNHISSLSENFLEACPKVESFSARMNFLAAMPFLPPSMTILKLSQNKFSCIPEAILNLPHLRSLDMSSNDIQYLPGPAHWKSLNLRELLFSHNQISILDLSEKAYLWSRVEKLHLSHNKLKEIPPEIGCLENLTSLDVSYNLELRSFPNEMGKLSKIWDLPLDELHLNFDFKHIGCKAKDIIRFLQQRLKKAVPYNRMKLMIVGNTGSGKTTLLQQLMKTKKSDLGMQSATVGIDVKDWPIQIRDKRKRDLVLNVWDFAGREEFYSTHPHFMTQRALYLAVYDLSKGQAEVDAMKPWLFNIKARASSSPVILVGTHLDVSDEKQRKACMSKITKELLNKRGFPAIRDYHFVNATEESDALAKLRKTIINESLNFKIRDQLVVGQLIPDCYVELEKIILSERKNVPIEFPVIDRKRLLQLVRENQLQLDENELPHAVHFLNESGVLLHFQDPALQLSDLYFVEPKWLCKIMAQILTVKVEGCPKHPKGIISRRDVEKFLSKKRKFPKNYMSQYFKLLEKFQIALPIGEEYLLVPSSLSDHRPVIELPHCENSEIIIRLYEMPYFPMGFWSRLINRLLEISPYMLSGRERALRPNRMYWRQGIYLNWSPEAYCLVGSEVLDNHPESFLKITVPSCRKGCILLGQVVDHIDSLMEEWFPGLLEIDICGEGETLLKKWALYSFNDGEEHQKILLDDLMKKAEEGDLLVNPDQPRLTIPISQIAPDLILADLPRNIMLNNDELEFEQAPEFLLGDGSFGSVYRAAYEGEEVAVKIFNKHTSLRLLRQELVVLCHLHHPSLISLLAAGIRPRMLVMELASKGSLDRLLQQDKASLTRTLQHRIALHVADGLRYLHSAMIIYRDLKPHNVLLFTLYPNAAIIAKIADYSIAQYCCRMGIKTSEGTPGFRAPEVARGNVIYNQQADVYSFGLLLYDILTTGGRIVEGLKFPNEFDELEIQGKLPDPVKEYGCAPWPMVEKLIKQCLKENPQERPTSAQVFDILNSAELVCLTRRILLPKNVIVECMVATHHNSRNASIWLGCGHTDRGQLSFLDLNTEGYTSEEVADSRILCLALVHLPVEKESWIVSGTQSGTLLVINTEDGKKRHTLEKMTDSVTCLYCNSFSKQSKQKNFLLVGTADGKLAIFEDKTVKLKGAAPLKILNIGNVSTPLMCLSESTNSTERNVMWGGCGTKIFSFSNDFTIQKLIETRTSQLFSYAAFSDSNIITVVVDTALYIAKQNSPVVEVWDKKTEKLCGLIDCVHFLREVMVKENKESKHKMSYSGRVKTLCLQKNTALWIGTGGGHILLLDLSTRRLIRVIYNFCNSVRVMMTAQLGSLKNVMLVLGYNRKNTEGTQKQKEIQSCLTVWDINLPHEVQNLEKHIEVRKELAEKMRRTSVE
assayExplanation: LRRK2 Km ATP LanthaScreen Assay
experimentalParameters: 134 μM ATP (Km ATP); fluorescein-labeled LRRKtide substrate; mean IC50 values
propertyMeasured: IC50
# number then unit; no other words

IC50 reading for CN1CCOC2(C1)CN(c1cc(-n3ncc4ccc(C5(C#N)CC6(CC6)C5)cc43)ncn1)C2 [Example 28] : 1.3 nM

Record summary for CC1CC12CC(C#N)(c1ccc3cnn(-c4cc(N5CCN6CCOC[C@@H]6C5)ncn4)c3c1)C2 (single isomer, unassigned) [Example 52] : reported IC50 = 2.4 nM

So, N#CC1(c2ccc3cnn(-c4cc(N5CCN6CCOC[C@@H]6C5)ncn4)c3c2)CC2(CC2)C1 [Example 45] ? Its IC50 was 2 nM

Looking up N#CC1(c2ccc3cnn(-c4cc(N5CCO[C@H](CO)C5)ncn4)c3c2)CC2(CC2)C1 [Example 14] , I see its IC50 listed as 2.9 nM

Please fill in: IC50 reported for CC1CC12CC(C#N)(c1ccc3cnn(-c4cc(N5CCN6CCOC[C@@H]6C5)ncn4)c3c1)C2 (single isomer, unassigned) [Example 50] = 4.4 nM

Reported IC50 ( CN1CCOC2CN(c3cc(-n4ncc5ccc(C6(C#N)CC7(CC7)C6)cc54)ncn3)CC21 (single isomer, unassigned) [Example 41] ) = 1.2 nM

Recorded result, COc1nc(N2CC3(C(C)(C)O)CC2C3)cc(-n2ncc3ccc(C4(C#N)CC5(CC5)C4)cc32)n1 [Example 30] , IC50: 12.3 nM

====

studyTarget: GST-tagged truncated human mutant G2019S LRRK2 (Homo sapiens (Human), UniProt Q5S007, G2019S)
assayExplanation: LRRK2 Km ATP LanthaScreen Assay
experimentalParameters: 134 μM ATP (Km ATP); fluorescein-labeled LRRKtide substrate; mean IC50 values
propertyMeasured: log10 IC50 (log10 of the value in nM)
Values are log10 of IC50 in nM.

Item: CC1C2(CC2)CC1(C#N)c1ccc2cnn(-c3cc(N4CCN5CCOC[C@@H]5C4)ncn3)c2c1 (single isomer, unassigned) [Example 56] | log10 IC50: 0.48

// recorded log10 IC50 for C[C@H]1CN(c2cc(-n3ncc4ccc(C5(C#N)CC6(CC6)C5)cc43)ccn2)CCN1C1COC1 [Example 31] : 1.05

// log10 IC50 lookup, compound = COCc1nc(N2CC3(C(C)(C)O)CC2C3)cc(-n2ncc3ccc(C4(C#N)CC5(CC5)C4)cc32)n1 [Example 20] , result: 1.21

Lookup result for CN1CCOC2CN(c3cc(-n4ncc5ccc(C6(C#N)CC7(CC7)C6)cc54)ncn3)CC21 (single isomer, unassigned) [Example 40] ; measured log10 IC50: -0.05

The reported log10 IC50 of the compound CC1CC12CC(C#N)(c1ccc3cnn(-c4cc(N5CCN6CCOC[C@@H]6C5)ncn4)c3c1)C2 (single isomer, unassigned) [Example 51] was 0.99

Form field log10 IC50, entry CC1C2(CC2)CC1(C#N)c1ccc2cnn(-c3cc(N4CCN5CCOC[C@@H]5C4)ncn3)c2c1 (single isomer, unassigned) [Example 53] : 0.90

====

So I've got a bunch of molecules here, and I need their pIC50 values.
studyTarget: GST-tagged truncated human mutant G2019S LRRK2 (Homo sapiens (Human), UniProt Q5S007, G2019S)
assayExplanation: LRRK2 Km ATP LanthaScreen Assay
experimentalParameters: 134 μM ATP (Km ATP); fluorescein-labeled LRRKtide substrate; mean IC50 values
Schema: pIC50 number; meaning minus log10 of the concentration expressed in molar units.

response.value for CC1C2(CC2)CC1(C#N)c1ccc2cnn(-c3cc(N4CCN5CCOC[C@@H]5C4)ncn3)c2c1 (single isomer, unassigned) [Example 55] (field: pIC50) = 7.47

// pIC50 value for Cc1nc(N2CCN3CCOC[C@@H]3C2)cc(-n2ncc3ccc(C4(C#N)CC5(CC5)C4)cc32)n1 : 8.49

Recorded pIC50 (molecule CC1(O)CC2(CN(c3cc(-n4ncc5ccc(C6(C#N)CC7(CC7)C6)cc54)ncn3)C2)C1 (stereo not drawn) ): 9.00

Documented pIC50 of CC(C)(O)[C@@H]1CCN(c2cc(-n3ncc4ccc(C5(C#N)CC6(CC6)C5)cc43)ncn2)C1 : 9.05

Data point: N#CC1(c2ccc3cnn(-c4cc(N5CC6(CO)CC5C6)ncn4)c3c2)CC2(CC2)C1 ; pIC50 = 8.82

Please fill in: pIC50 reported for CC1(O)CN(c2cc(-n3ncc4ccc(C5(C#N)CC6(CC6)C5)cc43)ncn2)C1 = 8.54

Item: Cc1nc(N2CC[C@H](O)[C@H](F)C2)cc(-n2ncc3ccc(C4(C#N)CC5(CC5)C4)cc32)n1 | pIC50: 7.74

Record N#CC1(c2ccc3cnn(-c4cc(N5CC[C@H](O)[C@@H](F)C5)ncn4)c3c2)CC2(CC2)C1 . Reported pIC50: 8.21

Entry CC(C)(O)C12CC(C1)N(c1cc(-n3ncc4ccc(C5(C#N)CC6(CC6)C5)cc43)ncn1)C2 , pIC50 reported as 8.59

The value of pIC50 measured for the molecule N#CC1(c2ccc3cnn(-c4cc(N5CCC(C6COC6)CC5)ncn4)c3c2)CC2(CC2)C1 turned out to be 8.30

Recorded pIC50 (molecule COC1(C)CN(c2cc(-n3ncc4ccc(C5(C#N)CC6(CC6)C5)cc43)ncn2)C1 ): 8.37

pIC50 for COCC12CC(C1)N(c1cc(-n3ncc4ccc(C5(C#N)CC6(CC6)C5)cc43)ncn1)C2 is 8.03

pIC50 in this record for N#CC1(c2ccc3cnn(-c4cc(N5CCN6CCOC[C@H]6C5)ncn4)c3c2)CC2(CC2)C1 : 8.15

Measured pIC50 of N#CC1(c2cc3c(cn2)cnn3-c2cc(N3CCN4CCOC[C@@H]4C3)ncn2)CC2(CC2)C1 : 8.06

Consider Cc1nc(N2CC[C@H](O)[C@@H](F)C2)cc(-n2ncc3ccc(C4(C#N)CC5(CC5)C4)cc32)n1 . Its measured pIC50 is 8.29

Just for reference, patent US11174248B2 is where these values come from.
